Target: SACE_0303 (TetR-family regulator) (Saccharopolyspora erythraea)
Sequence: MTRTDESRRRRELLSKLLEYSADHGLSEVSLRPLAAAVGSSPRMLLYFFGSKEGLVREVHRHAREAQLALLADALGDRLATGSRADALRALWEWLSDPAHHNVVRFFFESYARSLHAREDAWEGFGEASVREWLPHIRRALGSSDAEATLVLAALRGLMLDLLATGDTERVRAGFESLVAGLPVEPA
Experiment: EMSA
Conditions: EMSA: 10 mM Tris-HCl pH 7.5, 60 mM KCl, 50 mM EDTA (so in the source), 10 mM DTT, 5 mM MgCl2, 10% glycerol, 150 ng probe, 20 uL, 30 C 20 min; footprint at 20 C
Parameter: binding

{"columns": ["Sequence Code", "Test System", "Parameter", "Reported Measurement"],
 "data": [
  ["GGCGACGGCGGCTTTCGTCGGTGCGGGTCATCCGGATATCGTACTGAAACGACTGTTTCAGGAGGGCGCATGGGCGGCATCGAGATCCGCACCGGCCCGC (double strand) [P0303-0304]", "SACE_0303 (TetR-family regulator) (Saccharopolyspora erythraea)", "binding", "binds"],
  ["AGCTTTGACAGGTCCGCCACGCGTCCCCCTACTCGACGACCACGCAATGGGCGAACAATATAGGAAGGATCAAGAGGTTGACATCGCCTCGTCGAGCCAACGAACCTGTGAACATCTGCATGTTGACAAGATCAACGGCGGCTACCTACTGTGGTGGCCCAGTGACGGGTTGCCGCACATCGCGCTGGGGAGATTCTTTGAATTTCGCCCGTAGCACCGACCTGGAAAGCGAGCAAATGCTCCGGTGAATGGGATCAGTGATTC (double strand) [PeryAI]", "SACE_0303 (TetR-family regulator) (Saccharopolyspora erythraea)", "binding", "no binding"],
  ["CGCTGGATCCTACCAACCGGCACGATTGTCCAGCCCACAACAGCATCGCGGTGCCACGTGTGGACCGCGTCGGTCAGATCCTCCCCGCACCTCTCGCCAGCCGTCAAGATCGACCGCGTGCACCTGCGATCGCCGATCAACCGCGACTAGCATCGGGCGCAAGCCGCCACTCGAACGGACACTCGC (double strand) [PermE]", "SACE_0303 (TetR-family regulator) (Saccharopolyspora erythraea)", "binding", "no binding"],
  ["CGACCTCGGCCGCCTGCTGTCCTGCCGGCGGGCGGCACGTGCCGCGGTCCGCTGAAACGGTTGCGAAAACGGGAAATCACCGCTGAGGGTGGCCGCCGCCGGCGGATTGCGCCGCCGAGATCGGCATGCCTAGGCTTCCACCACCGCTCCATCACGTGCGGGGTCCGGGTCCGGGAGCAGCCGATGCCGCAAGACGCGTGTACTTCCGCCCGGCAGAACACGTCCTCG (double strand) [P3156]", "SACE_0303 (TetR-family regulator) (Saccharopolyspora erythraea)", "binding", "binds"]
]}

Source of measurements: paper PMC8476842
